Target: T1, GFP-9S library array, motif 4 ND N98W;D124T (synthetic construct, N98W;D124T)
T1 chain: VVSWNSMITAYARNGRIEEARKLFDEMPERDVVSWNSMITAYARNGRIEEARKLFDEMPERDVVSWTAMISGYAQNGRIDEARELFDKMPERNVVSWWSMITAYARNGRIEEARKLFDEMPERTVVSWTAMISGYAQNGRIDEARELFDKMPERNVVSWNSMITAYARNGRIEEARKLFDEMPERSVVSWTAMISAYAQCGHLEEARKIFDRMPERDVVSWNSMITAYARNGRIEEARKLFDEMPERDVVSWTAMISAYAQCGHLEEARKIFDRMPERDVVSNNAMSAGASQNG
Assay: high-throughput RNA pulldown from lysate on Ni-NTA beads; HRP: 50 mM Tris pH 8, 150 mM NaCl, 1 mM beta-mercaptoethanol, 50 ug/ml BSA, 3 ug/ml yeast RNA, 0.5% heparin; ITC and FP: Tris pH 8, 200 mM KCl, 5% glycerol; MST: 50 mM Tris pH 8, 200 mM NaCl, 1 mM DTT, BSA, heparin, 0.05% Tween 20
Details: tags: N-terminal His-eGFP; label: 5' IRDye 800CW
READOUT_KIND: pKd
Formally, pKd is defined as -log10 of the concentration c, with c in mol/L.

BINDER	pKd
AUUAAACGUGA (ssRNA) [IR-rpoA-A]	7.12

From here, focus on the item given below.
Problem: Consider the binder shown here: AUUAUACGUGA (ssRNA) [IR-rpoA-U] What is its recorded pKd?
Solution: 7.23

The values you see were collected from paper PMC8809517.
